All figures here come from ChEMBL document CHEMBL5058564.

# System: U2OS
# protocol notes: Incucyte cell viability with U2OS; note: unitless GR value; below 1 slowed growth and below 0 cell loss
# Type: toxicity, cell-based
# measurement setup: human, 12 h, 10 µM, compound concentration 10 uM, replicate number 1, timepoint 12 hours
measurement type: Growth Rate

> print(dat)
                           substance.smiles  experimental.value
1  COc1ccc2cc(S(=O)(=O)N[C@H](CC(=O)N[C@H](Cc3ccc(CN4[C@H](C)CCC[C@@H]4C)cc3)C(=O)N(C)C(C)C)c3ccc4c(c3)OCO4)ccc2c1.Cl                0.63
2  COc1ccc(C(=O)N2CCN(C(=O)/C=C/c3ccc(Br)cc3)CC2)cc1                 0.8
3  CNC(=O)c1nn(C)c2c1C(C)(C)Cc1cnc(Nc3ccc(N4CCN(C)CC4)cc3)nc1-2                0.17
4  CC(C)CC(=O)Nc1cncc(-c2ccc3[nH]nc(-c4nc5c(-c6cccc(F)c6)cncc5[nH]4)c3c2)c1               -0.56
5  N=C(N)NCCC[C@H](NC(=O)COCC(c1ccccc1)c1ccccc1)C(=O)O.O=C(O)C(F)(F)F                0.84
6  O=C1NC(Nc2ccccc2)=N/C1=C\c1ccc2c(c1)OCO2                0.12
7  CC[C@@H](C)Nc1nc(C)nc2c(-c3ccc(OC)nc3C)c(C)nn12                0.45
8  COc1cc2nc(N3CCN(C(=O)COc4c(OC)cccc4C(C)C)CC3)nc(N)c2cc1OC.Cl.Cl                0.56
